Assay Summary: A CellTox Green Cytotoxicity Assay to monitor cytotoxicity in HepG2 cells - 32 hour (AID 1224883); also: nearly all actives have a fitted effect of over 50% in size
Condition Notes: CellTox Green fluorescence; series mostly up to 76.8 µM
Records with an inconclusive call do not appear. Activity calls are given as the source filed them. Calls follow the shape of the dose curve; as a rule, active = well fitted activation curve with a large enough effect in the repeat runs; inconclusive = weak or mixed curves; inactive = flat fitted curve, though single readings scatter.
Outcomes you can answer with include only these: active, inactive

INPUT: Just curious, what result did c1ccc(-c2cccc(-c3ccccc3)c2)cc1 get here?
OUTPUT: inactive

INPUT: Just curious, what result did C=C(C)C(=O)OCC1CO1 (stereo not drawn) get here?
OUTPUT: inactive

INPUT: Just curious, what result did O=C1C=CC(=O)C=C1 get here?
OUTPUT: inactive

INPUT: Just curious, what result did N#Cc1cc(Br)c(O)c(Br)c1 get here?
OUTPUT: inactive

INPUT: Just curious, what result did O=C(CCl)c1ccccc1 get here?
OUTPUT: inactive
